The reported numbers originate from paper PMC9558423.

studyConditions: Medium dose (350 mg/kg bw); plasma; mean ± SD
Structures can show the parent of a compound that is named as a salt.
Measured Cmax values are reported for all entries that follow.
Report only the number, with the unit nM understood.

INSERT INTO results (compound, numericvalue) VALUES
  ('COc1cc(/C=C/C(=O)O)ccc1OS(=O)(=O)O [Ferulic acid sulfate]', 262);

Consider now this further compound.
Given O=C(O)CCc1cccc(O)c1 [3-OH-PPA, 3-hydroxyphenylpropionic acid] , state its recorded Cmax.
161

---

Measured Cmax (nmol excreted) values are reported for all entries that follow.
studyConditions: Medium dose (350 mg/kg bw); urine; mean ± SD
Report only the number, with the unit nmol excreted understood.

Known Cmax (nmol excreted) results, listed for orientation:
INSERT INTO assay_data (compound, measuredquantity, numericvalue) VALUES
  ('O=C(O)CNC(=O)c1cccc(O)c1 [3-OH-hippuric acid, 3-hydroxyhippuric acid]', 'Cmax (nmol excreted)', 31.8),
  ('O=C(O)[C@H]1O[C@@H](Oc2c(-c3ccc(O)c(O)c3)oc3cc(O)cc(O)c3c2=O)[C@H](O)[C@@H](O)[C@@H]1O [Quercetin glucuronide, quercetin-3-O-glucuronide]', 'Cmax (nmol excreted)', 0.72);

Consider now this further compound.
Given OC[C@H]1O[C@@H](Oc2cc3c(O)cc(O)cc3[o+]c2-c2cc(O)c(O)c(O)c2)[C@H](O)[C@@H](O)[C@H]1O [Delphinidin Galactoside] , state its recorded Cmax (nmol excreted).
0.98
